Read-out: urokinase plasminogen activator (uPA), PLAU (gene 5328)
Assay: BSK_BE3C_uPA: BioMAP Diversity Plus: BE3C Assay for urokinase plasminogen activator (uPA) Biomarker Activity (AID 2283038)
Conditions: primary human bronchial epithelial cells; actives raise or lower the signal
The source made the active and inactive calls. Rule for the calls: active = hit-call score of the fitted dose curve at least 0.9, where 1 is the maximum; inactive = score below 0.9.
Hello, when you answer, please use one of the following outcomes: active, inactive

// query Recorded test call requested for `COc1nc(C)nc(NC(=O)NS(=O)(=O)c2ccccc2OCCCl)n1`
// result inactive

// query Identify the outcome logged in this assay for the compound shown: `CCOC(=O)NCCOc1ccc(Oc2ccccc2)cc1`
// result inactive

// query Each compound tested received a call. Report the one for `O=C(c1ccccc1)C1CCCCC1` .
// result inactive

// query I would be grateful if you could indicate the recorded call for `C[C@]12C[C@H](O)[C@H]3[C@@H](CCC4=CC(=O)CC[C@@]43C)[C@@H]1CC[C@@H]2C(=O)CO` .
// result inactive

// query Could you check what this test reported for C=CCOC(Cn1ccnc1)c1ccc(Cl)cc1Cl (configuration not stated) ?
// result inactive

// query // param item: `CCN(CC)C(=O)c1cccc(C)c1` ; yields the recorded call
// result inactive

// query Name the outcome recorded for `COC(=O)CSc1cc(N=c2sc(=O)n3n2CCCC3)c(F)cc1Cl` in the assay.
// result inactive

// query For CCCCOC(=O)C(C)Oc1ccc(Oc2ccc(C(F)(F)F)cn2)cc1 (configuration not stated) , which call appears in the assay record?
// result inactive

// query Each compound tested received a call. Report the one for `CCCN(CCC)C(=O)SCC` .
// result inactive

// query GET /call?item= CCCCC(CC)CN1C(=O)C2C3C=CC(C3)C2C1=O (configuration not stated) returns the recorded outcome of this test.
// result inactive

// query What outcome does the record of this test show for `COC(=O)c1ccccc1S(=O)(=O)NC(=O)Nc1nc(OC(F)F)cc(OC(F)F)n1` ?
// result inactive

// query Hi, do you know how `S=C([S-])NCCNC(=S)[S-].[Mn+2]` came out in this test?
// result inactive

// query Returns: the outcome recorded for `N[C@@H](Cc1cc(I)c(Oc2ccc(O)c(I)c2)c(I)c1)C(=O)O` in this assay.
// result inactive

// query Look up the recorded call for `COc1c(Cl)ccc(Cl)c1C(=O)O` in this test.
// result inactive

// query // return assay outcome for `CCCOC(=O)c1ccc(C(=O)OCCC)nc1`
// result inactive

// query Hi, sorry to bother you, what did the test record for `Oc1ccc(C(c2ccc(O)cc2)C(Cl)(Cl)Cl)cc1` ?
// result active

// query Look up the recorded call for `CCCCCOC(=O)COc1cc(N2C(=O)C3=C(CCCC3)C2=O)c(F)cc1Cl` in this test.
// result inactive

* * *

Read-out: xenobiotic metabolism (CYP1A2), CYP1A2 (gene 1544)
Assay: CLD_CYP1A2_24hr: CellzDirect (CLD) Gene Expression Assay for xenobiotic metabolism (CYP1A2) at 24 hours (AID 2283683)
Protocol: CLD_24hr is a cell-based, multiplexed-readout assay that uses hepatocyte, a human liver primary cell, with measurements taken at 24 hours after chemical dosing in a 96-well plate.CLD_CYP1A2_24hr is one of 16 assay component(s) measured or calculated from the CLD_24hr assay. […] Furthermore, this assay endpoint can be referred to as a primary readout. […]
Results filed as inconclusive are left out. Active and inactive are the calls of the source. The calls were made as follows: active = hit-call score of the fitted dose curve at least 0.9, where 1 is the maximum; inconclusive = response in the unintended direction; inactive = score below 0.9.
Please reply with one of these outcomes: T (active), F (inactive)

{"MOLECULE": "OB(O)O", "ASSIGNED CLASS": "F"}
{"MOLECULE": "CCCN(CCC)C(=O)SCC", "ASSIGNED CLASS": "F"}
{"MOLECULE": "CSC(=O)c1cccc2nnsc12", "ASSIGNED CLASS": "T"}
{"MOLECULE": "CCOC(=O)C(C)Oc1ccc(Oc2cnc3cc(Cl)ccc3n2)cc1 (stereo not given)", "ASSIGNED CLASS": "F"}

Note: attention shifts to another entry.
// query Per the assay record, what outcome was assigned to `O=C(O)C1(C(=O)Nc2ccc(Cl)cc2Cl)CC1` ?
// result T

* * *

Read-out: Cytochrome P450 (CYP1A2), CYP1A2 (gene 1544)
Assay: LTEA_HepaRG_CYP1A2: Life Technologies and Expression Analysis (LTEA) Assay for Cytochrome P450 (CYP1A2) using HepaRG (AID 2283479)
Settings: mRNA level, 48 h; actives raise or lower the signal
Active and inactive are the calls of the source. How the source made its calls: active means hit-call score of the fitted dose curve at least 0.9, where 1 is the maximum; inactive means score below 0.9.
Output constraint: value belongs to TRUE = active, FALSE = inactive

// query // return assay outcome for `Oc1ccc(C(c2ccc(O)cc2)C(Cl)(Cl)Cl)cc1`
// result FALSE

// query // return assay outcome for `N#CSCSc1nc2ccccc2s1`
// result FALSE

// query Recorded call for `c1ccc(Nc2ccccc2)cc1` ?
// result FALSE

// query Per the assay record, what outcome was assigned to `CCCN(CCC)C(=O)SCC` ?
// result FALSE

// query Record lookup: outcome of this test for `O=C(c1ccccc1)C1CCCCC1` ?
// result FALSE

* * *

Read-out: Protein phosphatase 2A (PPP2R4), PTPA (gene 5524)
Assay: LTEA_HepaRG_PPP2R4: Life Technologies and Expression Analysis (LTEA) Assay for Protein phosphatase 2A (PPP2R4) using HepaRG (AID 2283522)
Settings: mRNA level, 48 h; actives raise or lower the signal
Active and inactive are the calls of the source. Rule for the calls: active = hit-call score of the fitted dose curve at least 0.9, where 1 is the maximum; inactive = score below 0.9.
A correct response names exactly one class from class 1 (active), class 0 (inactive)

Consider the following illustrative entries.
{"COMPOUND": "CC(=O)[C@H]1CC[C@H]2[C@@H]3CCC4=CC(=O)CC[C@]4(C)[C@H]3CC[C@]12C", "ASSIGNED CLASS": "class 1"}
{"COMPOUND": "CSC(=O)c1cccc2nnsc12", "ASSIGNED CLASS": "class 0"}
{"COMPOUND": "COC(=O)CSc1cc(N=c2sc(=O)n3n2CCCC3)c(F)cc1Cl", "ASSIGNED CLASS": "class 0"}

// query For this compound, state the assay outcome: CCCCOC(=O)C(C)Oc1ccc(Oc2ccc(C(F)(F)F)cn2)cc1 (configuration not stated)
// result class 0

// query Entry `COCCO` : call = ?
// result class 0

// query So what was the verdict on C[C@]12CC[C@@H]3c4ccc(O)cc4C[C@@H](CCCCCCCCCS(=O)CCCC(F)(F)C(F)(F)F)[C@H]3[C@@H]1CC[C@@H]2O (some centres not stated) in this test?
// result class 1

// query Answer briefly: the call reported for CCOC(=O)C(C)Oc1ccc(Oc2cnc3cc(Cl)ccc3n2)cc1 (configuration not stated) in this assay.
// result class 0

// query # outcome recorded in this test, key = `O=C(O)C1(C(=O)Nc2ccc(Cl)cc2Cl)CC1`
// result class 1

// query # outcome recorded in this test, key = CCCCC(CC)COC(=O)c1ccccc1C(=O)O (configuration not stated)
// result class 0

* * *

Read-out: Tumor necrosis factor receptor superfamily member 6 (Homo sapiens) (UniProt P25445)
Test: LTEA_HepaRG_FAS: Life Technologies and Expression Analysis (LTEA) Assay for Fas cell surface death receptor (FAS) using HepaRG (AID 2283447)
Details: mRNA level, 48 h; actives raise or lower the signal
Active and inactive are the calls of the source. Rule for the calls: active = hit-call score of the fitted dose curve at least 0.9, where 1 is the maximum; inactive = score below 0.9.
The categories you may choose from are active, inactive

Please review the following examples before continuing.
{"COMPOUND": "CC(C)(C)[C@@H](O)[C@@H](Cc1ccc(Cl)cc1)n1cncn1", "ASSIGNED CLASS": "inactive"}
{"COMPOUND": "CCOC(=O)COc1cc(-n2ncc(C(F)(F)F)c(C)c2=O)c(F)cc1Cl", "ASSIGNED CLASS": "inactive"}

// query Please state the recorded outcome for this compound: `CCN(CC)C(=O)c1cccc(C)c1`
// result inactive

// query What did this assay record as the result for `Oc1ccc(C(c2ccc(O)cc2)C(Cl)(Cl)Cl)cc1` ?
// result inactive

// query Returns: the outcome recorded for CCOC(=O)C(C)Oc1ccc(Oc2nc3ccc(Cl)cc3o2)cc1 (stereo not given) in this assay.
// result inactive

// query Answer briefly: the call reported for C[C@]12CC[C@@H]3c4ccc(O)cc4C[C@@H](CCCCCCCCCS(=O)CCCC(F)(F)C(F)(F)F)[C@H]3[C@@H]1CC[C@@H]2O (stereo not given in full) in this assay.
// result active

// query Hey, what did the test say about `CCNc1nc(N)nc(Cl)n1` ?
// result inactive

// query Answer briefly: the call reported for `CCCCOC(=O)[C@@H](C)Oc1ccc(Oc2ccc(C(F)(F)F)cn2)cc1` in this assay.
// result inactive

// query For this compound, state the assay outcome: `COC(=O)c1ccc(I)cc1S(=O)(=O)NC(=O)Nc1nc(C)nc(OC)n1`
// result inactive

// query Which outcome was entered for the compound `S=C([S-])NCCNC(=S)[S-].[Mn+2]` in this test?
// result active
